# Target Under Test: FRMPD2_2, Q68DX3
# Sequence (Q68DX3 944-1038): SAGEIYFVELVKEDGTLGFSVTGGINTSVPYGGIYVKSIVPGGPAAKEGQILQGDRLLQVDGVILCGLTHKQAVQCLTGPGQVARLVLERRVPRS
# Experiment Description: holdup assay
# Set-up: key: below the threshold = too weak to quantify, mostly under pKd 3.1 to 4
# Reported Conditions: plain residues with an end cap or a label only (N-terminal biotin on a linker: ahx)
Recorded Endpoint: pKd

Binder: SDSSGQEYSL [KCTD3, Q9Y597]
Measured Value: below the threshold

Binder: RRRKRKRTYL [HPV49-L2, P36762]
Measured Value: below the threshold

Binder: TVICWPGSLV [LNX2, Q8N448]
Measured Value: 3.85

Binder: PSASCAVTAA [PDLIM4, P50479;P50479-2]
Measured Value: below the threshold

Binder: HNAFLSVTTV [PDZRN4, Q6ZMN7]
Measured Value: below the threshold

Binder: NRKREIFSNF [NHERF2, Q15599]
Measured Value: below the threshold

Binder: ESLLLGPSNF [SHROOM4, Q9ULL8]
Measured Value: below the threshold

Binder: GYDWGPATDL [TJP3, O95049]
Measured Value: 3.54

Binder: LSDPSVSTVV [GRIN1, Q05586;Q05586-2]
Measured Value: below the threshold

Binder: RAVEEEESRF [PSCDBP, O60759]
Measured Value: below the threshold
